Recorded IC50 for the following molecules
# MEASURED_TARGET: Recombinant human DAO (Homo sapiens (Human))
# Sequence (P19801 20-751): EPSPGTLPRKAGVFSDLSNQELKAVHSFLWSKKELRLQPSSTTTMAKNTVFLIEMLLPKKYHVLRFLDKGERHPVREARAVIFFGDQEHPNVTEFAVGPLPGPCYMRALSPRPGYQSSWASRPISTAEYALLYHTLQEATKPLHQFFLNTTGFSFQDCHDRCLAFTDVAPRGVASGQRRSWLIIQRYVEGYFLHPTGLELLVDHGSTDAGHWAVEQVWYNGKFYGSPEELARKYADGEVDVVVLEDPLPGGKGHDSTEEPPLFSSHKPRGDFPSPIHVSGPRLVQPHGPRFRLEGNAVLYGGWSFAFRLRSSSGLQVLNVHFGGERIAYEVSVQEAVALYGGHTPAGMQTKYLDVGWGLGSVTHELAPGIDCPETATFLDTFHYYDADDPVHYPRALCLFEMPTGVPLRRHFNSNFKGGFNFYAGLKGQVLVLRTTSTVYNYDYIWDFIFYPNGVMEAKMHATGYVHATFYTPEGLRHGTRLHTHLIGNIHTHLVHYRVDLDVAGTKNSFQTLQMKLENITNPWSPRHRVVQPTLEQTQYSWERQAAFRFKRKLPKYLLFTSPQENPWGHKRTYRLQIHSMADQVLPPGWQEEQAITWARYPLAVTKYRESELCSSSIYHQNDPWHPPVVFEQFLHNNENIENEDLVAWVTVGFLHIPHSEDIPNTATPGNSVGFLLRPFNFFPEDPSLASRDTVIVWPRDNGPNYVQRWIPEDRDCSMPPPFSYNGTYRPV
# MEASUREMENT_NOTES: Inhibition of human recombinant diamine oxidase
# REPORTED_CONDITIONS: putrescine 200 μM
VALUE_TYPE: IC50

1. CN(C)S(=O)(=O)c1ccc(OC/C(=C\F)CN)cc1 [Compound 10] : > 1 µM
2. CN(C)C(=O)c1ccc(OC/C(=C\F)CN)c(Cl)c1 [Compound 6] : < 1 µM
3. CN(C)C(=O)c1ccc(OC/C(=C\F)CN)c(F)c1 [Compound 4] : < 1 µM
4. CC(C)NS(=O)(=O)c1ccc(OC/C(=C/F)CN)cc1 [Compound 32] : > 10 µM
5. CNS(=O)(=O)c1ccc(OC/C(=C/F)CN)cc1 [Compound 28] : > 10 µM
6. CCN(CC)C(=O)c1ccc(OC/C(=C/F)CN)cc1 [Compound 24] : > 10 µM

====

Items are presented alongside their recorded pIC50.
# MEASURED_TARGET: Recombinant human DAO (Homo sapiens (Human))
# MEASUREMENT_NOTES: Inhibition of human recombinant diamine oxidase
# REPORTED_CONDITIONS: putrescine 200 μM
pIC50: −log10 of the molar value. Structures can show the parent of a compound that is named as a salt.
VALUE_TYPE: pIC50

1) CN(C)C(=O)c1ccc(OC/C(=C/F)CN)cc1 [Compound 13, hydrochloride] : < 6.00
2) CC(C)NS(=O)(=O)c1ccc(OC/C(=C\F)CN)cc1 : > 6.00
3) CNC(=O)c1ccc(OC/C(=C/F)CN)cc1 : > 6.00
4) NC/C(=C\F)COc1ccc(S(N)(=O)=O)cc1 : < 5.00
5) NC/C(=C/F)COc1ccc(C(N)=O)cc1 : > 7.00
6) COc1cc(C(=O)N(C)C)ccc1OCC(=CF)CN : > 6.00
7) Cc1cc(OC/C(=C\F)CN)ccc1C(=O)N(C)C : > 6.00
8) NC/C(=C/F)COc1ccc(S(N)(=O)=O)cc1 : > 6.00
9) NC/C(=C\F)COc1ccc(C(N)=O)cc1 : < 6.00
10) CN(C)S(=O)(=O)c1ccc(OC/C(=C/F)CN)cc1 : < 5.00

====

# IC50 values compiled below
# MEASURED_TARGET: recombinant human VAP-1 (Homo sapiens)
# MEASUREMENT_NOTES: Inhibition of human recombinant SSAO/VAP-1 expressed in HMEC cells (cell lysate)
Counter-ions that a name gives are not always drawn.
VALUE_TYPE: IC50

1. NC/C(=C/F)COc1ccc(S(N)(=O)=O)cc1 : < 100 nM
2. NC/C(=C\F)COc1ccc(S(N)(=O)=O)cc1 : < 100 nM
3. CN(C)C(=O)c1ccc(OC/C(=C\F)CN)cc1 : < 100 nM
4. NC/C(=C\F)COc1ccc(C(N)=O)cc1 : < 100 nM
5. Cc1cc(OC/C(=C\F)CN)ccc1C(=O)N(C)C : < 100 nM
6. NC/C(=C/F)COc1ccc(C(N)=O)cc1 : < 100 nM
7. COc1cc(C(=O)N(C)C)ccc1OCC(=CF)CN : < 100 nM
8. CN(C)C(=O)c1ccc(OC/C(=C/F)CN)cc1 [Compound 13, hydrochloride] : < 100 nM
9. CN(C)C(=O)c1ccc(SCC(=CF)CN)cc1 : < 100 nM
10. CNC(=O)c1ccc(OC/C(=C/F)CN)cc1 : < 100 nM

====

# MEASURED_TARGET: Recombinant human DAO (Homo sapiens (Human))
# MEASUREMENT_NOTES: Inhibition of human recombinant diamine oxidase
# REPORTED_CONDITIONS: putrescine 200 μM
VALUE_TYPE: IC50

1. CN(C)C(=O)c1ccc(OC/C(=C\F)CN)cc1 : < 100 nM
2. CCNS(=O)(=O)c1ccc(OC/C(=C/F)CN)cc1 : > 10000 nM
3. CN(C)C(=O)c1ccc(OC/C(=C\F)CN)c(Br)c1 : < 1000 nM
4. CCNS(=O)(=O)c1ccc(OC/C(=C\F)CN)cc1 : < 1000 nM
5. CNS(=O)(=O)c1ccc(OC/C(=C\F)CN)cc1 : > 1000 nM

====

This listing pairs molecules with measured pIC50.
# MEASURED_TARGET: Recombinant human MAO-B (Homo sapiens (Human), UniProt P27338)
# Sequence (P27338 whole entry): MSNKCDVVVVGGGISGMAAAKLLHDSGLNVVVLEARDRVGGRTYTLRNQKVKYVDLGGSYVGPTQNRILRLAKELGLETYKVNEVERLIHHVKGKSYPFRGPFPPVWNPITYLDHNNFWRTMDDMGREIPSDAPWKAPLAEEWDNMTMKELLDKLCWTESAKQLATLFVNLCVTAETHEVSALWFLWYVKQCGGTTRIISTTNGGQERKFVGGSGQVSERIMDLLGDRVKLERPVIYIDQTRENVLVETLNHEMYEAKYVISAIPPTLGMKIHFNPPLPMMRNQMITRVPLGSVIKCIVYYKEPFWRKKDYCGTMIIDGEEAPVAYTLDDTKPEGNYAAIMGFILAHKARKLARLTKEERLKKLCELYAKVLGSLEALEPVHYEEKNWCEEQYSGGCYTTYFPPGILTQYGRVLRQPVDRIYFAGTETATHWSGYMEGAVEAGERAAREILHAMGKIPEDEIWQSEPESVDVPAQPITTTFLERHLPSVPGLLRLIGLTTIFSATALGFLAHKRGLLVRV
# MEASUREMENT_NOTES: Inhibition of human recombinant MAO-B
# REPORTED_CONDITIONS: benzylamine 100 μM
pIC50: −log10 of the molar value. Counter-ions that a name gives are not always drawn.
VALUE_TYPE: pIC50

1. CNC(=O)c1ccc(OC/C(=C/F)CN)cc1 : < 6.00
2. CCNS(=O)(=O)c1ccc(OC/C(=C\F)CN)cc1 : < 6.00
3. CN(C)C(=O)c1ccc(OC/C(=C\F)CN)cc1 : < 7.00
4. CN(C)C(=O)c1ccc(OC/C(=C\F)CN)c(Cl)c1 : < 6.00
5. CNS(=O)(=O)c1ccc(OC/C(=C\F)CN)cc1 : < 5.00
6. CC(C)NS(=O)(=O)c1ccc(OC/C(=C/F)CN)cc1 : < 5.00
7. CN(C)S(=O)(=O)c1ccc(OC/C(=C\F)CN)cc1 : < 5.00
8. CN(C)S(=O)(=O)c1cccc(OC/C(=C\F)CN)c1 : < 4.00
9. NC/C(=C/F)COc1ccc(C(N)=O)cc1 : < 6.00
10. CNS(=O)(=O)c1ccc(OC/C(=C/F)CN)cc1 : < 5.00
11. NC/C(=C/F)COc1ccc(S(N)(=O)=O)cc1 : < 5.00
12. CN(C)S(=O)(=O)c1ccc(OC/C(=C/F)CN)cc1 : < 5.00
13. NC/C(=C\F)COc1ccc(S(N)(=O)=O)cc1 : < 5.00
14. CC(C)NS(=O)(=O)c1ccc(OC/C(=C\F)CN)cc1 : < 5.00
15. CN(C)C(=O)c1ccc(SCC(=CF)CN)cc1 : < 6.00
16. CN(C)C(=O)c1ccc(OC/C(=C\F)CN)c(F)c1 : < 7.00
17. COc1cc(C(=O)N(C)C)ccc1OCC(=CF)CN : < 5.00
18. CCN(CC)C(=O)c1ccc(OC/C(=C/F)CN)cc1 : < 6.00
19. CCNS(=O)(=O)c1ccc(OC/C(=C/F)CN)cc1 : < 5.00
20. NC/C(=C\F)COc1ccc(C(N)=O)cc1 : < 5.00
21. CN(C)C(=O)c1ccc(OC/C(=C\F)CN)c(Br)c1 : < 6.00
22. Cc1cc(OC/C(=C\F)CN)ccc1C(=O)N(C)C : < 6.00
23. CN(C)C(=O)c1ccc(OC/C(=C/F)CN)cc1 [Compound 13, hydrochloride] : < 7.00

====

# MEASURED_TARGET: Endogenous SSAO/VAP-1 in rat fat (Rattus norvegicus (Rat))
# Sequence (O08590 whole entry): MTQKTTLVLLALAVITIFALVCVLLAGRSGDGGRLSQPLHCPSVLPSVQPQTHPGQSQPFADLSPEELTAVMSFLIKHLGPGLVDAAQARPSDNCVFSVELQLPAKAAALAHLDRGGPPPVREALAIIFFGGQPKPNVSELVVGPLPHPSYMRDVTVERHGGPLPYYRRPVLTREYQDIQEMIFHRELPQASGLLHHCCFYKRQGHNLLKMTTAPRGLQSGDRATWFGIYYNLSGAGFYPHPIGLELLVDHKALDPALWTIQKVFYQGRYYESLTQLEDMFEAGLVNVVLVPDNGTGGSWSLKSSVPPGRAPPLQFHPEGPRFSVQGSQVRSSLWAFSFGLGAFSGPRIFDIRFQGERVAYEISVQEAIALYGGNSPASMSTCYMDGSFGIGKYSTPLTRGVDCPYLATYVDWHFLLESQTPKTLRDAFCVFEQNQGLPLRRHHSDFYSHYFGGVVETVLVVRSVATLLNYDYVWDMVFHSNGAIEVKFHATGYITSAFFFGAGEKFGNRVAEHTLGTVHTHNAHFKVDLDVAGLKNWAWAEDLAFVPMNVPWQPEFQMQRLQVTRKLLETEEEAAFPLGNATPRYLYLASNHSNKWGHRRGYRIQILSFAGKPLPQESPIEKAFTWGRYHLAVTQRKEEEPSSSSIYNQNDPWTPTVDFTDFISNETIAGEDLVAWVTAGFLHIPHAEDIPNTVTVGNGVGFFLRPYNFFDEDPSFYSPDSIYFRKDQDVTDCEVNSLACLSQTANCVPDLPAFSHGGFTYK
# MEASUREMENT_NOTES: Inhibition of SSAO/VAP-1 in rat fat homogenate
# Assay type: biochemical
# REPORTED_CONDITIONS: benzylamine 30 μM
pIC50: −log10 of the molar value.
VALUE_TYPE: pIC50

1. CNS(=O)(=O)c1ccc(OC/C(=C/F)CN)cc1 [Compound 28] : > 7.00
2. NC/C(=C\F)COc1ccc(S(N)(=O)=O)cc1 [Compound 11] : > 7.00
3. CN(C)S(=O)(=O)c1ccc(OC/C(=C/F)CN)cc1 [Compound 14] : > 7.00
4. NC/C(=C/F)CCc1ccc(F)cc1 [Mofegiline, reference compound] : 8.22
5. CC(C)NS(=O)(=O)c1ccc(OC/C(=C/F)CN)cc1 [Compound 32] : > 7.00
